Every entry's value here was drawn from patent US20250320312A1.

target: PC-BSA; experiment: ELISA (DELFIA TRF), PC-BSA coated, titrated IgG1
Sequence (P02769 25-607 limits assumed, form in doubt): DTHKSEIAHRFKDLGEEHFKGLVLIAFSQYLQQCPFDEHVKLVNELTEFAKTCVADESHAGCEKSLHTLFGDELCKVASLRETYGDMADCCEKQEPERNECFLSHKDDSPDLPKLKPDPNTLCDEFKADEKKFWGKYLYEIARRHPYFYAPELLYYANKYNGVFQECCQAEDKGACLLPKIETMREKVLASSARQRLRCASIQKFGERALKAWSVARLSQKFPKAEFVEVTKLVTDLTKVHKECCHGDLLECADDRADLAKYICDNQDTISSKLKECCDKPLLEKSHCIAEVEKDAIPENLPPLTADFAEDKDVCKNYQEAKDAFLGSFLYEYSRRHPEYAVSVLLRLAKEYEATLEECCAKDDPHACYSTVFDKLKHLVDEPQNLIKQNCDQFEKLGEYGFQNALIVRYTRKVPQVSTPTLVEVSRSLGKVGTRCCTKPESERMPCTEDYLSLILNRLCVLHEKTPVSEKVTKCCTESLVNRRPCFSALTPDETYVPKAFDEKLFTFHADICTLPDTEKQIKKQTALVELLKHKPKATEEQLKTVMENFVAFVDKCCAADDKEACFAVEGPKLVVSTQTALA
Parameter: EC50 (nM)
Hi! Could you send only the number? It should be in nM, unit omitted.

Recorded result, PcOxP_DB01_F11 (human IgG1) (antibody, V domains shown) VH: EVQLLESGGGLVQPGGSLRLSCAASGFTFSSYYMEWVRQAPGKGLEWVAASRNKANDYTTEYADSVKGRFTISRDNSKNTLYLQMNSLRAEDTAVYYCARDYYGSSYWYYDVWGQGTLVTVSS VL: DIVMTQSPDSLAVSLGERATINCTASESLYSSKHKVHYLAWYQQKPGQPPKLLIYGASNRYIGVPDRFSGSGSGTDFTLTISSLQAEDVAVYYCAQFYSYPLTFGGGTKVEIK , EC50: 0.244

Recorded result, PcOxP_DB04_A09 (human IgG1) (antibody, V domains shown) VH: EVQLLESGGGLVQPGGSLRLSCAASGFTFSDYYMEWVRQAPGKGLEWVAASRNKWNDYTTEYADSVKGRFTISRDNSKNTLYLQMNSLRAEDTAVYYCARDYYGSSYWYFDVWGQGTLVTVSS VL: DIQMTQSPSSLSASVGDRVTITCTAEESLYSSKHKVHYLAWYQQKPGKAPKLLIYGASNLYSGVPSRFSGSGSGTDFTLTISSLQPEDFATYYCAQFYSYPLTFGGGTKVEIK , EC50: 0.269

Others:
Recorded result, PcOxP_DB01_A06 (human IgG1) (antibody, V domains shown) VH: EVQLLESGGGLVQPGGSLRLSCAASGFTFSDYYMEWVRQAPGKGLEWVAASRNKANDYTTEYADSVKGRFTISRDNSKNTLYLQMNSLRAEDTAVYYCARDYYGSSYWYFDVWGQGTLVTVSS VL: DIQMTQSPSSLSASVGDRVTITCTASESLYSSKHKVHYLAWYQQKPGKAPKLLIYGASNRYIGVPSRFSGSGSGTDFTLTISSLQPEDFATYYCAEFYSYPLTFGGGTKVEIK , EC50: 0.43
